Target: OTUB2 (OTUB2A) (Homo sapiens, UniProt Q96DC9)
Construct: full length residues 1-234, E. coli BL21(DE3)-R3, His tag removed by TEV, construct 27312 Da
Sequence (Q96DC9 whole entry, the tested form may be a part): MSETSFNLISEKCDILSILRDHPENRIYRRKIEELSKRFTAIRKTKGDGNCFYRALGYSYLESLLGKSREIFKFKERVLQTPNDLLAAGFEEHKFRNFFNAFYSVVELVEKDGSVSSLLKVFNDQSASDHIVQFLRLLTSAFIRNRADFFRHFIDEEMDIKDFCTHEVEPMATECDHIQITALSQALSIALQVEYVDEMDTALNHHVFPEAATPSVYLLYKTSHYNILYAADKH
Parameters: Intact protein LC/MS covalent labelling, fragments in pools of five, 200 uM each, 4 °C
Conditions: 24 h, 4 °C, pool of five; 200 µM; covalent
OTUB2 values by entry
readout_name: OTUB2

molecule: O=C(CCl)NCc1ccc(F)cc1
meas_value: 0.31
--
molecule: Cc1ccc([N+](=O)[O-])c(NC(=O)CCl)c1C
meas_value: 0.07
--
molecule: CC(NC(=O)CCl)c1ccc(Cl)cc1Cl (centres unmarked)
meas_value: 0.18
--
molecule: COc1ccc(Cl)cc1NC(=O)CCl
meas_value: 0.18
--
molecule: NC(=O)C1CCN(C(=O)CCl)CC1
meas_value: 0
--
molecule: O=C(CCl)Nc1ccc([N+](=O)[O-])cc1Cl
meas_value: 0.21
--
molecule: O=C(CCl)Nc1cc([N+](=O)[O-])ccc1F
meas_value: 0.31
--
molecule: COc1cccc2sc(NC(=O)CCl)nc12.Cl
meas_value: 0.16
--
molecule: O=C(CCl)N1CCCC(c2nc3ccccc3s2)C1 (centres unmarked)
meas_value: 0
--
molecule: O=C(CCl)NC(=O)Cc1ccccc1
meas_value: 0
--
molecule: CSc1ccc(NC(=O)CCl)cc1
meas_value: 0.28
--
molecule: Cc1nc(C2(NC(=O)CCl)CCCCC2)no1
meas_value: 0
--
molecule: C=CC(=O)NC1CNC(=O)C1 (centres unmarked)
meas_value: 0
--
molecule: C=CC(=O)NCC1COc2ccccc2O1 (centres unmarked)
meas_value: 0
--
molecule: C=CC(=O)N1CC(c2nc(C)no2)C1
meas_value: 0
--
molecule: CN1C(=O)c2ccc(NC(=O)CCl)cc2C1=O
meas_value: 0.19
--
molecule: O=C(CCl)N(c1ccccc1)C1C=CS(=O)(=O)C1 (centres unmarked)
meas_value: 0
--
molecule: CC(C)N(C)C(=O)C1CCN(C(=O)CCl)CC1
meas_value: 0
--
molecule: O=C(CCl)Nc1ccc(-c2nnc3n2CCCCC3)cc1
meas_value: 0.28
--
molecule: O=C(CCl)NNC(=O)c1ccco1
meas_value: 0.27
--
molecule: O=C(CCl)N1CCN(S(=O)(=O)c2ccc(F)c(F)c2)CC1
meas_value: 0
--
molecule: O=C(CCl)NC1CCCCNC1=O (centres unmarked)
meas_value: 0
--
molecule: CN(C(=O)CCl)C(C)(C)C#N
meas_value: 0
